// data source = patent US9963448B2

Target: hPAD4 (Homo sapiens, UniProt Q9UM07)
Sequence (Q9UM07 whole entry): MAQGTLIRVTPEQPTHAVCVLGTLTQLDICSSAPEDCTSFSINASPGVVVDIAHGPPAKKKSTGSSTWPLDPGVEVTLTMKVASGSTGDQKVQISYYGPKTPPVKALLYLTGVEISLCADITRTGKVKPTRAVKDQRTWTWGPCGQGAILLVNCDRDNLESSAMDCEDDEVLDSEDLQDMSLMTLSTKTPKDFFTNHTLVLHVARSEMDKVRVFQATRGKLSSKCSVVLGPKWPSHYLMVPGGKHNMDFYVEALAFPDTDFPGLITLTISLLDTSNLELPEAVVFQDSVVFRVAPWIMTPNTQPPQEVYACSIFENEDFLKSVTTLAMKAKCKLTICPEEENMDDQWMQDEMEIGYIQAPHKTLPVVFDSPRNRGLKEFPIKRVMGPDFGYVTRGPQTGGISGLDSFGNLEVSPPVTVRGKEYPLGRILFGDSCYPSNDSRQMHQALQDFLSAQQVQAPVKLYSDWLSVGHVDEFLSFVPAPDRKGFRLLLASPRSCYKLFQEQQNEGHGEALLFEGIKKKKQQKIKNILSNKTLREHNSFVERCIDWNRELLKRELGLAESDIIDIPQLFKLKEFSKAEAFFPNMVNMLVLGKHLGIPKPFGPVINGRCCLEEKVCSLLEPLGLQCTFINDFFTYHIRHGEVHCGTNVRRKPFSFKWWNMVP
Test: hPAD4 RFMS (RapidFire mass spectrometry) PAD4 inhibition assay;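 further: grade E means pIC50 at most 4 and F means pIC50 4.0 to 5.0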
Assay type: biochemical
Details: hPAD4 enzyme, RFMS readout; pIC50=−log(IC50); read-out: hPAD4 RFMS pIC50 (converted)
Quick list: IC50 per entry.

Below, 3 compounds whose answers are already recorded.
COMPOUND	IC50
Cn1c(-c2cc3cccnc3n2CC2CC2)nc2cc(C(=O)N3CC[C@H]4CCN[C@H]4C3)ccc21	1000 to 10000 nM
COCCn1c(-c2nc3cc(C(=O)N4C[C@H](N)CC[C@@H]4C)cc(OC)c3n2C)cc2cccnc21 [Compound I-195]	1000 to 10000 nM
Cn1c(-c2cc3cccnc3n2CC2CC2)nc2cc(C(=O)N3C[C@@H](N)C[C@H](F)C3)cc(OCC(F)F)c21	1000 to 10000 nM

Quick one: IC50 for Cn1c(-c2cc3cccnc3n2CC2CC2)nc2cc(C(=O)N3CCC[C@@H](N)C3)cc(S(C)(=O)=O)c21 ?
1000 to 10000 nM

Now give it for CCn1c(-c2nc3cc(C(=O)N4C[C@H]5CC[C@@H]4[C@@H]5N)cc(OC)c3n2C)cc2cccnc21 [Compound I-159] too.
< 1000 nM

Now give it for CCCn1c(-c2nc3cc(C(=O)N4CCC[C@@H](N)C4)cc(OC)c3n2C)cc2cccnc21 too.
< 1000 nM

Now give it for COc1cc(C(=O)N2CCC[C@@H](N)C2)cc2nc(-c3cc4ccc(C)nc4n3CC3CC3)n(C)c12 too.
< 1000 nM
